experiment: NCI Yeast Anticancer Drug Screen. Data for the sgs1 mgt1 strain (AID 161);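 note: 0% = growth of cultures given vehicle only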; details: S. cerevisiae sgs1 mgt1 strain, at 5.0 µM (retest, dose inferred, filed as 0.5), stronger effect = higher value
The panel holds about 79,000 compounds, 15% with a hit somewhere; the sample as a whole holds those more often.
Reported growth inhibition values are given for each entry in this list.
Give a bare numeral; the unit % is implied.

Example entries and their recorded answers appear below.
[[record]]
molecule = "CC1c2c(n(C)c3ccccc23)C2CCC3(CO3)C1N2Cc1ccccc1 (configuration not stated)"
reported_property = "growth inhibition"
test_result = 42

[[record]]
molecule = "NC(=O)/C=C/c1ccc([As]=O)cc1 (configuration not stated)"
reported_property = "growth inhibition"
test_result = 0

[[record]]
molecule = "NC1=NC(=O)N2CC12 (configuration not stated)"
reported_property = "growth inhibition"
test_result = 25

[[record]]
molecule = "O=C(O)C1CC2c3ccccc3C1([N+](=O)[O-])c1ccccc12 (configuration not stated)"
reported_property = "growth inhibition"
test_result = 0


Lab note: "O=[N+]([O-])/C=C/c1ccc(Cl)cc1[N+](=O)[O-]" gave growth inhibition of 99

Lab note: "O=C(CBr)c1ccncc1" gave growth inhibition of 100

Lab note: "O=[N+]([O-])c1cccc(SC(Cl)(Cl)Cl)c1" gave growth inhibition of 31

Measured values drawn from PubChem BioAssay (NCI) for this set.
